study_target: Delta-type opioid receptor (Homo sapiens)
Sequence (P41143 whole entry): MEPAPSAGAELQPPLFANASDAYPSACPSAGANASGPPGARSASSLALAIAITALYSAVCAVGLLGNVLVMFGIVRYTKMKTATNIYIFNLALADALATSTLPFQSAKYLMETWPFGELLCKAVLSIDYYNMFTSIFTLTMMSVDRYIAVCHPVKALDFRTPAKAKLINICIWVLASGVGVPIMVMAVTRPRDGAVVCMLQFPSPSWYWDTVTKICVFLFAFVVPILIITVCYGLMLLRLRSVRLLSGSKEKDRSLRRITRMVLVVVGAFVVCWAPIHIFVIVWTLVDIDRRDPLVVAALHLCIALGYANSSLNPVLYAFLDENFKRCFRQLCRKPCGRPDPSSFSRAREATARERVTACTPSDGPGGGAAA
measurement_description: Inhibitory activity against Opioid receptor delta 1 in chinese Hamster Ovary (CHO) cell membranes was determined using [3H]naltrindole radioligand
readout_kind: pKi
By convention, pKi is the negative base-10 log of a molar concentration.

smiles_code=O=C(CCC(=O)Oc1ccc2c(c1)[C@@]13CCCC[C@H]1[C@@H](C2)N(CC1CCC1)CC3)Oc1ccc2c(c1)[C@@]13CCCC[C@H]1[C@@H](C2)N(CC1CCC1)CC3 study_target="Delta-type opioid receptor (Homo sapiens)" value=8.03
smiles_code=c1cc2c(cc1OCCCCCCCCCCOc1ccc3c(c1)[C@@]14CCCC[C@H]1[C@@H](C3)N(CC1CCC1)CC4)[C@@]13CCCC[C@H]1[C@@H](C2)N(CC1CCC1)CC3 study_target="Delta-type opioid receptor (Homo sapiens)" value=5.60
smiles_code=O=C(/C=C/C(=O)Oc1ccc2c(c1)[C@@]13CCCC[C@H]1[C@@H](C2)N(CC1CCC1)CC3)Oc1ccc2c(c1)[C@@]13CCCC[C@H]1[C@@H](C2)N(CC1CCC1)CC3 study_target="Delta-type opioid receptor (Homo sapiens)" value=8.03
smiles_code=O=C(CCCCCCCCC(=O)Oc1ccc2c(c1)[C@@]13CCCC[C@H]1[C@@H](C2)N(CC1CCC1)CC3)Oc1ccc2c(c1)[C@@]13CCCC[C@H]1[C@@H](C2)N(CC1CCC1)CC3 study_target="Delta-type opioid receptor (Homo sapiens)" value=8.38
smiles_code=O=C(Oc1ccc2c(c1)[C@@]13CCCC[C@H]1[C@@H](C2)N(CC1CCC1)CC3)[C@H]1C[C@H]1C(=O)Oc1ccc2c(c1)[C@@]13CCCC[C@H]1[C@@H](C2)N(CC1CCC1)CC3 study_target="Delta-type opioid receptor (Homo sapiens)" value=7.80

--- query ---
pKi in this record for c1cc2c(cc1OCCCCOc1ccc3c(c1)[C@@]14CCCC[C@H]1[C@@H](C3)N(CC1CCC1)CC4)[C@@]13CCCC[C@H]1[C@@H](C2)N(CC1CCC1)CC3 : 6.14
